Test system: PC-3 prostate
Assay: NCI tumour cell line growth inhibition, 48 h
Please respond with reported GI50 for every item in the list.

# input Find the measured GI50: item O=C(/C(=C\c1ccc([N+](=O)[O-])cc1)S(=O)Cc1ccc(F)cc1)c1ccc(F)cc1 (stereo not drawn) , target or system PC-3 prostate.
# output 1690 nM

# input # returns recorded GI50 (system: PC-3 prostate) for Cn1cc(C2=C(c3cn(C)c4c([N+](=O)[O-])cccc34)C(=O)NC2=O)c2ccccc21
# output > 25000 nM

# input GET /values?readout=GI50&system=PC-3 prostate&item= O=C1C(=O)c2c(nc3ccc(Br)cn23)-c2ccccc21
# output 688 nM

----------
System: SK-MEL-2 melanoma
Assay: NCI tumour cell line growth inhibition, 48 h
Please provide measured TGI for the entries that follow.

# input Which TGI is reported for this molecule? O=C(CSc1nc2[nH]ncc2c(=O)[nH]1)c1ccc(Cl)cc1
# output > 100 µM

# input Data request, read-out TGI, for CCOC(=O)C(C)NC(=O)C(C)NC(=O)C(C)NC(=O)C(C)NC(=O)C(C)NC(=O)OCc1ccccc1 (stereo not drawn)
# output > 100 µM

# input Any idea what its TGI is? The molecule is Cc1ccc(Nc2c(C#N)[n+]([O-])c3cc(Cl)ccc3[n+]2[O-])cc1
# output > 100 µM

----------
Tested on: HCT-15 colon
Assay: NCI tumour cell line growth inhibition, 48 h
Hi there, I'd appreciate the recorded TGI for every entry that follows.
Field format: number, assumed µM, no unit text.

# input What reported TGI corresponds to c1cc2[nH]ncc2cc1-c1nc2ccc3[nH]ncc3c2c2c1CCCC2 on HCT-15 colon?
# output 11.2

# input Give the reported TGI for COc1ccc2c(c1)[n+](=O)c(C(=O)c1ccco1)c(C(F)(F)F)n2[O-] (system: HCT-15 colon).
# output 4.6

# input Hi! What's the reported TGI for COc1cc(OC)c(/C=C\c2ccnc3ccccc23)c(OC)c1 on HCT-15 colon?
# output 18.5

# input Query the reported TGI for HCT-15 colon; item: COc1ccc2c(CN3CCC(C(=O)O)CC3)cc3cc4c(cc3c2c1)OCO4
# output 16.7

----------
Tested on: LOX IMVI melanoma
Assay: NCI tumour cell line growth inhibition, 48 h
parameter: TGI

# input Lab request: please report TGI under test system LOX IMVI melanoma for COc1cc(-c2nc3ccccc3s2)ccc1NC(=O)COc1ccc(Cl)cc1
# output > 100 µM

# input Observed TGI on LOX IMVI melanoma for Cc1cc(O)ccc1C1=NN(c2ccc(S(C)(=O)=O)cc2)C(=O)CC1 , please.
# output > 100 µM

# input What measured TGI is associated with O=[N+]([O-])c1ccccc1N/N=C\c1c[nH]c2ccccc12 on LOX IMVI melanoma?
# output > 47.6 µM

# input Item CN(NC(=O)c1cccs1)C1=NCCCCN1 with LOX IMVI melanoma - TGI?
# output > 100 µM

# input Short answer please: TGI, LOX IMVI melanoma, entry CNCc1cc(OC)ccc1-c1ccc(OC)c(OC)c1OC
# output > 100 µM

# input Give TGI (LOX IMVI melanoma) of the following compound: COC(=O)/C=C(\C(=O)OC)c1c2c3c(cc(OC)c(OC)c3c3ccccc13)CCN2C
# output > 100 µM

# input // map CC1=C/C(=N\O)C(C(O)(C(F)(F)F)C(F)(F)F)C(C)(C)C1 (stereo not drawn) to recorded TGI (system: LOX IMVI melanoma)
# output > 10 µM

# input I'm curious: which TGI was measured for CS(=O)(=O)Nc1ccc(-c2cc(-c3ccccc3)cc(C(N)=O)c2N)cc1 tested on LOX IMVI melanoma?
# output > 25 µM

# input Record CC(C)NC(=O)OCc1c(COC(=O)NC(C)C)c(-c2cc[n+](COC(=O)C(C)(C)C)cc2)n2c1CCC2 : what is its TGI with LOX IMVI melanoma?
# output > 100 µM

# input Quick check: TGI on LOX IMVI melanoma, item O=C(O)CCc1ccc2c(c1)C(=O)CC2 ?
# output > 100 µM

# input For LOX IMVI melanoma, provide TGI of COC(CC1(/C=C/O[Si](C(C)C)(C(C)C)C(C)C)C(=O)N(C)c2ccccc21)OC (stereo not drawn) please.
# output > 100 µM

# input Reported TGI for LOX IMVI melanoma, given CNC(=O)N(CCC#N)CCCN(C(=O)NC)c1ccccc1 ?
# output > 100 µM

# input Form: Entry = COC(=O)C(C(=O)C(=O)Nc1nc(=S)[nH][nH]1)c1csc(-n2nc(-c3ccccc3)cc2-c2ccccc2)n1 (stereo not drawn) | System = LOX IMVI melanoma | TGI = ____
# output > 100 µM
